# maps each entry to its relative viability
Tested on: NCI-H661
PROTOCOL: relative viability (nuclei count vs DMSO), 5 days (fraction); higher = more cells survive
CONDITION_DESCRIPTION: first compound 2.53 µM
# respond with the number and nothing more

INSERT INTO results (compound, reported_endpoint, reading) VALUES
  ('O=c1cc(-c2cccc3c2Sc2ccccc2S3)oc(N2CCOCC2)c1 + O=C(CCCCCCC(=O)Nc1ccccc1)NO [Vorinostat] (partner 1 µM)', 'relative viability', 0.734),
  ('COc1nc(C)cnc1NS(=O)(=O)c1cccnc1-c1ccc(-c2nnco2)cc1 [Zibotentan] + Cc1cc(Nc2cc(N3CCN(C)CC3)nc(Sc3ccc(NC(=O)C4CC4)cc3)n2)n[nH]1 [Tozasertib] (partner 0.1 µM)', 'relative viability', 0.364),
  ('COc1nc(C)cnc1NS(=O)(=O)c1cccnc1-c1ccc(-c2nnco2)cc1 [Zibotentan] + C[C@@H](Oc1cc(-c2cnn(C3CCNCC3)c2)cnc1N)c1c(Cl)ccc(F)c1Cl [Crizotinib] (partner 1 µM)', 'relative viability', 0.853),
  ('O=c1cc(-c2cccc3c2Sc2ccccc2S3)oc(N2CCOCC2)c1 + N=C(N)NC(=N)NCCc1ccccc1 [Phenformin] (partner 250 µM)', 'relative viability', 0.267);

Turning now to a further compound:
Entry O=c1cc(-c2cccc3c2Sc2ccccc2S3)oc(N2CCOCC2)c1 + CC(=O)Nc1cccc(-n2c(=O)n(C3CC3)c(=O)c3c(Nc4ccc(I)cc4F)n(C)c(=O)c(C)c32)c1 [Trametinib] (partner 0.02 µM) — recorded relative viability = 0.514

====

Recorded relative viability values for a group of compounds are listed next.
Test system: EPLC-272H
PROTOCOL: relative viability (nuclei count vs DMSO), 5 days (fraction); higher = more cells survive
CONDITION_DESCRIPTION: first compound 0.01 µM
Please give only the number in your answer, with no unit.

Reference set, count: 4
INSERT INTO measurements (compound, reported_endpoint, reading) VALUES
  ('O=c1cc(N2CCOCC2)oc2c(-c3cccc4c3sc3ccccc34)cccc12 + Nc1ncn([C@H]2C[C@H](O)[C@@H](CO)O2)c(=O)n1 [Decitabine] (partner 2 µM)', 'relative viability', 0.392),
  ('O=c1cc(N2CCOCC2)oc2c(-c3cccc4c3sc3ccccc34)cccc12 + COc1cc2c(Oc3ccc(NC(=O)C4(C(=O)Nc5ccc(F)cc5)CC4)cc3F)ccnc2cc1OCCCN1CCOCC1 [Foretinib] (partner 0.25 µM)', 'relative viability', 0.607),
  ('CCN(CC)CCCCNc1ncc2cc(-c3cc(OC)cc(OC)c3)c(NC(=O)NC(C)(C)C)nc2n1 + Cc1nc(NC(=O)N2CCC[C@H]2C(N)=O)sc1-c1ccnc(C(C)(C)C(F)(F)F)c1 [Alpelisib] (partner 2 µM)', 'relative viability', 0.918),
  ('O=c1cc(N2CCOCC2)oc2c(-c3cccc4c3sc3ccccc34)cccc12 + CC1(C)CCC(c2ccc(Cl)cc2)=C(CN2CCN(c3ccc(C(=O)NS(=O)(=O)c4ccc(N[C@H](CCN5CCOCC5)CSc5ccccc5)c(S(=O)(=O)C(F)(F)F)c4)cc3)CC2)C1 [Navitoclax] (partner 0.5 µM)', 'relative viability', 1.11);

Form: compound = CCN(CC)CCCCNc1ncc2cc(-c3cc(OC)cc(OC)c3)c(NC(=O)NC(C)(C)C)nc2n1 + CC1(C)CCC(c2ccc(Cl)cc2)=C(CN2CCN(c3ccc(C(=O)NS(=O)(=O)c4ccc(N[C@H](CCN5CCOCC5)CSc5ccccc5)c(S(=O)(=O)C(F)(F)F)c4)cc3)CC2)C1 [Navitoclax] (partner 0.5 µM) ; relative viability = 1.14

# compound O=c1cc(N2CCOCC2)oc2c(-c3cccc4c3sc3ccccc34)cccc12 + CCNC(=O)c1noc(-c2cc(C(C)C)c(O)cc2O)c1-c1ccc(CN2CCOCC2)cc1 [Luminespib] (partner 0.01 µM) ; its relative viability = 0.244

Briefly, relative viability measured for O=c1cc(N2CCOCC2)oc2c(-c3cccc4c3sc3ccccc34)cccc12 + Cc1cc(Nc2cc(N3CCN(C)CC3)nc(Sc3ccc(NC(=O)C4CC4)cc3)n2)n[nH]1 [Tozasertib] (partner 0.1 µM) : 0.288

Noted for O=c1cc(N2CCOCC2)oc2c(-c3cccc4c3sc3ccccc34)cccc12 + COc1cccc2cc(-c3nc([C@H]4CC[C@H](C(=O)O)CC4)n4ncnc(N)c34)[nH]c12 [OSI-027] (partner 0.5 µM) : its relative viability reads 0.33

Consider O=c1cc(N2CCOCC2)oc2c(-c3cccc4c3sc3ccccc34)cccc12 + CC(=O)Nc1cccc(-n2c(=O)n(C3CC3)c(=O)c3c(Nc4ccc(I)cc4F)n(C)c(=O)c(C)c32)c1 [Trametinib] (partner 0.02 µM) . Its measured relative viability is 0.301

The reported numbers originate from the supplement of paper PMC10307832.
